IC50 values, listed per item
study target: HLA B*1501 (Homo sapiens, UniProt P01889, A329T/A93T/A95T/C349S/D201E/D98Y/E187L/E204Q/E69M/E70A/K202T/N87E/Q94N/R155S/R180W/S121R/S35A/S48A/V306I/V36M/Y140S/Y91S)
test details: biochemical
Where a SMILES comes first, the peptide text is derived from it.
Give the quantity in nM, number only.

compound	IC50 / nM
CC[C@H](C)[C@H](NC(=O)[C@H](CCCCN)NC(=O)[C@H](CC(N)=O)NC(=O)[C@H](CO)NC(=O)[C@H](Cc1ccc(O)cc1)NC(=O)[C@H](CCCCN)NC(=O)[C@H](CC(C)C)NC(=O)[C@@H](NC(=O)[C@@H](N)CCCCN)[C@@H](C)O)C(=O)O [3102.0326] (H-KTLKYSNKI-OH)	124

Proceeding to the next compound to report its IC50.
Look up IC50 for this compound: CC[C@H](C)[C@H](NC(=O)[C@H](Cc1ccc(O)cc1)NC(=O)[C@H](C)NC(=O)[C@H](C)NC(=O)[C@H](Cc1c[nH]cn1)NC(=O)[C@H](CO)NC(=O)[C@@H](N)CCCCN)C(=O)N[C@@H](CC(=O)O)C(=O)N[C@@H](Cc1ccc(O)cc1)C(=O)O [3102.0209] (H-KSHAAYIDY-OH)
1.8

###

study target: HLA A*6802 (Homo sapiens, UniProt P04439, A269V/D140Y/D185E/E176V/E277Q/E87N/F33Y/G231S/I121R/I166T/I218V/L180W/L300P/L318F/N151K/P208A/P217A/Q86R/R138H/R169H/S129P/T345S/V36M)
Format: binding
Class assignment keyed on Normalized average relative binding affinity(ARB), ranges bin 1: < 0.2; bin 2: ≥ 0.2 and < 0.5; bin 3: ≥ 0.5

The following sequences have reported results that may help.
In [3]: df
Out[3]:
        residue_sequence  class_assignment
0  XXXXMXXXX [3064.0091]             bin 3
1  XXXXNXXXX [3064.0092]             bin 2
2  XXXXXEXXX [3064.0104]             bin 3
3  XXXFXXXXX [3064.0065]             bin 3
4  XXXXXXLXX [3064.0130]             bin 3

// bin(item) where item = XXXKXXXXX [3064.0069]
bin 1

// bin(item) where item = XXXXXXXAX [3064.0141]
bin 3

// bin(item) where item = XXXXXTXXX [3064.0117]
bin 3

// bin(item) where item = XXXXXKXXX [3064.0109]
bin 2

// bin(item) where item = XXXXXXCXX [3064.0122]
bin 1

###

study target: HLA B*0801 (Homo sapiens, UniProt P01889, A93T/A95T/D138N/E176V/E187T/K202T/Q94N/R180D/S35A/V36M/Y33D/Y91F)
test details: biochemical
Where a SMILES comes first, the peptide text is derived from it.
value kind: IC50 (nM)
Give the quantity in nM, number only.

// known answers, use as guide
compound	readout unit	IC50
CC[C@H](C)[C@H](NC(=O)[C@H](CO)NC(=O)[C@H](CCCNC(=N)N)NC(=O)[C@H](CO)NC(=O)[C@H](CCSC)NC(=O)[C@H](CO)NC(=O)[C@H](CCCNC(=N)N)NC(=O)[C@@H](NC(=O)[C@@H](N)CO)[C@@H](C)CC)C(=O)O [3102.0527] (H-SIRSMSRSI-OH)	nM	77
CC[C@H](C)[C@H](NC(=O)[C@H](CO)NC(=O)[C@@H](NC(=O)[C@@H](NC(=O)[C@H](Cc1c[nH]c2ccccc12)NC(=O)[C@H](CCCCN)NC(=O)[C@H](CCSC)NC(=O)[C@@H](N)CCSC)[C@@H](C)CC)[C@@H](C)CC)C(=O)N[C@@H](CC(C)C)C(=O)O [3102.0616] (H-MMKWIISIL-OH)	nM	1.3
CSCC[C@H](NC(=O)[C@@H](N)CCCNC(=N)N)C(=O)N[C@@H](CCCNC(=N)N)C(=O)N[C@@H](Cc1ccccc1)C(=O)N[C@@H](CCCCN)C(=O)N[C@@H](CCCCN)C(=O)NCC(=O)N[C@@H](C)C(=O)N[C@H](C(=O)O)C(C)C [3102.0775] (H-RMRFKKGAV-OH)	nM	5.4
CC(C)C[C@H](NC(=O)[C@H](CCCCN)NC(=O)[C@H](CCCCN)NC(=O)[C@H](Cc1ccc(O)cc1)NC(=O)[C@H](CC(C)C)NC(=O)[C@@H](NC(=O)[C@@H](N)Cc1ccc(O)cc1)[C@@H](C)O)C(=O)N[C@@H](CO)C(=O)N[C@@H](Cc1ccccc1)C(=O)O [3102.0333] (H-YTLYKKLSF-OH)	nM	16
CC[C@H](C)[C@H](NC(=O)[C@@H](N)CS)C(=O)N[C@H](C(=O)N[C@@H](CC(N)=O)C(=O)N[C@@H](CCCCN)C(=O)N[C@@H](Cc1ccccc1)C(=O)N[C@@H](CCSC)C(=O)N[C@@H](CO)C(=O)N[C@@H](Cc1ccccc1)C(=O)O)C(C)C [3102.0620] (H-CIVNKFMSF-OH)	nM	60
N=C(N)NCCC[C@H](NC(=O)[C@H](Cc1ccc(O)cc1)NC(=O)[C@H](CCCNC(=N)N)NC(=O)[C@H](CCCNC(=N)N)NC(=O)[C@H](CO)NC(=O)[C@@H](N)CO)C(=O)N[C@@H](CS)C(=O)N[C@@H](CO)C(=O)N[C@@H](Cc1ccccc1)C(=O)O [3102.1158] (H-SSRRYRCSF-OH)	nM	12

Proceeding to the next compound to report its IC50.
Look up IC50 for this compound: CC(C)[C@H](NC(=O)[C@H](Cc1ccccc1)NC(=O)[C@H](CC(=O)O)NC(=O)[C@H](CC(N)=O)NC(=O)[C@H](CCCCN)NC(=O)[C@@H]1CCCN1C(=O)[C@@H](N)Cc1ccccc1)C(=O)N[C@@H](CO)C(=O)N[C@@H](Cc1ccccc1)C(=O)O [3102.0637] (H-FPKNDFVSF-OH)
16
